Assayed system: CD33 (Sino Biological, Cat #12238-H08H) (UniProt P20138 18-259)
Sequence (P20138 18-259 limits assumed): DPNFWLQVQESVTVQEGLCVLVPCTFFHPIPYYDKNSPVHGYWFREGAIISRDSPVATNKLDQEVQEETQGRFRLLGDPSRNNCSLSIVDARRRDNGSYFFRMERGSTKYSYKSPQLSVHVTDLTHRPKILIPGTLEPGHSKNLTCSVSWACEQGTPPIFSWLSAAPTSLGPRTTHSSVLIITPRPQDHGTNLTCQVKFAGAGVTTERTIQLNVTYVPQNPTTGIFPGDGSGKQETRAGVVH
Protocol: BLI, IgG captured on anti-human Fc sensor, 50 nM CD33, pH 7.4 vs pH 5.4

Binder: MYT2632 (antibody, V domains shown, IgG; IMGN779 VL variant #16 (L39H)) VH: QVQLQQPGAEVVKPGASVKMSCKASGYTFTSYYIHWIKQTPGQGLEWVGVIYPGNDDISYNQKFQGKATLTADKSSTTAYMQLSSLTSEDSAVYYCAREVRLRYFDVWGQGTTVTVSS VL: EIVLTQSPGSLAVSPGERVTMSCKSSQSVFFSSSQKNYHAWYQQIPGQSPRLLIYWASTRESGVPDRFTGSGSGTDFTLTISSVQPEDLAIYYCHQYLSSRTFGQGTKLEIK
binding result: binds

Binder: MYT1371 (antibody, V domains shown, IgG; vadastuximab VH variant #37 (Y106H)) VH: QVQLVQSGAEVKKPGASVKVSCKASGYTFTNYDINWVRQAPGQGLEWIGWIYPGDGSTKYNEKFKAKATLTADTSTSTAYMELRSLRSDDTAVYYCASGYEDAMDHWGQGTTVTVSS VL: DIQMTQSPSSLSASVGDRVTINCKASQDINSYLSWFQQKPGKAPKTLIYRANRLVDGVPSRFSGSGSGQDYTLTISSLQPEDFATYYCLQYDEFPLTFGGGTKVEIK
binding result: binds

Binder: MYT2626 (antibody, V domains shown, IgG; IMGN779 VL variant #10 (S33H)) VH: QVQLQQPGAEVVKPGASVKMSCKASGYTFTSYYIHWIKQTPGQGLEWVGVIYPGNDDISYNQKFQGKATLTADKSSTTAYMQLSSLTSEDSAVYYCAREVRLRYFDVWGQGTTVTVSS VL: EIVLTQSPGSLAVSPGERVTMSCKSSQSVFFSHSQKNYLAWYQQIPGQSPRLLIYWASTRESGVPDRFTGSGSGTDFTLTISSVQPEDLAIYYCHQYLSSRTFGQGTKLEIK
binding result: binds

Values compiled from patent US20220324969A1.
